- Test system: FGFR3-TACC3_v2 (N-FLAG) fusion polypeptide
- Assay Comment: In vitro kinase activity of FGFR3-TACC3_v2 (N-FLAG) fusion polypeptide (HTRF KinEASE-TK, peptide substrate)
- Type: biochemical, human
- Recorded Conditions: final concentration 10 nM; ATP 100 μM
Kindly supply the reported Inhibition against peptide substrate FGFR3-TACC3 v2 values for the records listed here.

COc1cc(OC)c(F)c(COc2cnc(Nc3ccc(N4CCN(C)CC4)cc3)nc2)c1F [Compound D] ... 80%
COc1cc(OC)c(F)c(COc2cnc(Nc3cnn(C[C@@H](O)CO)c3)nc2)c1F [Compound C] ... 73%

Query: Fill in: Inhibition against peptide substrate FGFR3-TACC3 v2 of COc1cc(CCc2cc(NC(=O)c3ccc(N4C[C@@H](C)N[C@@H](C)C4)cc3)[nH]n2)cc(OC)c1 [AZD4547] is ___
Result: 50%
